- target of assay: SARS-CoV-2 full length spike protein, V483A mutant, expressed on CHO cells (SARS-CoV-2, UniProt P0DTC2 14-1273)
readout name: median fluorescence fold over isotype control (fold over isotype)
Please give a number only; it is taken to be in fold over isotype.

binder antibody 372 (antibody, V domains shown) VH: QVQLVESGGGVVQPGRSLRLSCAASGFTFSSYAMHWVRQAPGKGLEWVAVISYDGSNKYYADSVKGRFTISRDNSKNTLYLQMNSLRAEDTAVYYCARDLGTSALLWFGELFLNYGMDVWGQGTTVTVSS VL: QSALTQPRSVSGSPGQSVTISCTGTSSDVGGYNYVSWYQQHPGKAPKLMIYDVSKRPSGVPDRFSGSKSGNTASLTISGLQAEDEADYYCCSYAGSPILVFGGGTKLTVL , median fluorescence fold over isotype control observed: 18.1

binder antibody 395 (antibody, V domains shown) VH: QVQLVQSGSELKKPGASVKLSCQASGYTFSNHAMNWVRQAPGQGLEWMGWINTNTGNPTYAQGFTGRFVFSLDTSVGTAYLHISSLKAEDTAFYYCARASARPGVATNLDFWGQGTLVVVSS VL: DIQMTQSPSSLSASVGDRVTITCRTSQNIDNYLNWYQQKPGKAPNLLIYAASRLHSGVPSRFSGSGSGTDFTLIISSLQPEDLATYYCQQSYSNPLTFGPGTKVDIR , median fluorescence fold over isotype control observed: 8.92

binder antibody 385 (antibody, V domains shown) VH: QVQLVESGGGVVQPGRSLRLSCAASGFTFSSYAIHWVRQAPGKGLEWVAVISYDGSNKYYADSVKGRFTISRDNSKNTLYLQMNSLRAEDTAVYYCARPRSGSYWGAFDIWGQGTMVTVSS VL: QSVLTQPPSVSGAPGQRVTISCTGSSSNIGARYDVHWYQQLPGTAPKLLIYGNSNRPSGVPDRFSGSKSGTSASLAITGLQAEDEADYYCQSYDSSLRGVFGGGTKLTVL , median fluorescence fold over isotype control observed: 8.16
